Below, each entry is listed alongside its reported growth inhibition.
Assay: NCI Yeast Anticancer Drug Screen. Data for the rad50 strain (AID 155);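 note: 0% = growth of vehicle-only cultures of the same strain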
Settings: S. cerevisiae rad50 strain growth inhibition; at 50.0 µM; stronger effect = higher value
The panel holds about 79,000 compounds, 15% with a hit somewhere; the sample as a whole holds those more often.

molecule	result.unit	growth inhibition
CCC(=O)N(C)C1(C#N)CCCCC1	%	29.4
Cc1ccccc1N1CCOS(=O)OC(C)C1 (stereo not given)	%	-3.6
CSc1nc(NC2OC(COC(C)=O)C(OC(C)=O)C(OC(C)=O)C2OC(C)=O)c(-c2csc(N)n2)c(=O)n1C (stereo not given)	%	-6.8
CNc1nnnn1C1OC(CO)C(O)C1O (stereo not given)	%	-2.15
CCOC(=O)c1c(-c2ccccc2)c(-c2ccccc2)cn1C	%	18.3
Cc1cc(=O)[nH]c(=O)[nH]1	%	5.85
Cc1ccc(-n2nnc(-c3ccc(Cl)c(Cl)c3)n2)cc1	%	-30.9
CCOC(=O)C(O)(NC(=O)c1ccc(F)cc1)C(F)(F)F (stereo not given)	%	12.2
C=C(C)C(=O)OCCn1c(=O)c2c(ncn2C)n(C)c1=O	%	-7.25
CCOC(=O)c1c(-c2ccccc2)n2c3c(cccc13)CC2	%	6.85
OC1CC2C3CCC(C3)C2C1O (stereo not given)	%	-11.8
Cc1cc([N+](=O)[O-])c(Cl)cc1Cl	%	-22.8
CSc1nc(C)cc(=O)n1C1OC(COC(C)=O)C(OC(C)=O)C(OC(C)=O)C1OC(C)=O (stereo not given)	%	20.6
COc1ccc(C(C#N)C(=O)C(=O)Nc2ccc(Cl)cc2C)cc1OC (stereo not given)	%	-19.9
CN(C)c1ccc(/C=N/N=C2\C(=O)Nc3c(Cl)cc(Cl)cc32)cc1	%	25.2
CC(=O)OCC1(C)C(O)CCC2(C)C1CCC1CC3CC12CCC3(O)CO (stereo not given)	%	12.2
CN1CCC(c2ccccc2)(c2ccccc2)OC1	%	3.7
N#CC(C(=N/O)/C(=N\O)C(C#N)c1ccccc1)c1ccccc1 (stereo not given)	%	-3.35
O=c1[nH]ncn2nc3ccccc3c12	%	3
O=c1c2ccccc2n2c(-c3ccccc3O)nnc2n1-c1ccccc1	%	6.5

---

Experiment: NCI Yeast Anticancer Drug Screen. Data for the rad50 strain (AID 155);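 note: 0% = growth of vehicle-only cultures of the same strain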
Settings: S. cerevisiae rad50 strain growth inhibition; at 50.0 µM; stronger effect = higher value
The panel holds about 79,000 compounds, 15% with a hit somewhere; the sample as a whole holds those more often. The source made the active and inactive calls. Rule as the data show it: active = growth inhibition above about 70%; inactive = the rest.
Below, each entry is listed alongside its reported growth inhibition.

molecule	growth inhibition
O=C(c1ccc(F)cc1)c1c[nH]c(=O)[nH]c1=O	-0.45% (inactive)
COc1ccccc1Nc1nc(NNC(=O)Cc2ccccc2)nc(NNC(=O)c2ccncc2)n1	27.4% (inactive)
COC(=O)C(N)CSc1ccc([N+](=O)[O-])cc1[N+](=O)[O-] (stereo not given)	37.5% (inactive)
N#CCCOCC(COCCC#N)(COCCC#N)COCCC#N	-11.9% (inactive)
O=C(NC12CC3CC(CC(C3)C1)C2)C(=O)c1c[nH]c2ccccc12	8.5% (inactive)
CC(c1ccccc1)C(OCc1ccccc1)OCc1ccccc1 (stereo not given)	-17.1% (inactive)
CC(=O)n1[nH]c(=O)c2ncccc2c1=O	2.75% (inactive)
c1ccc(-c2ccc(N=NN3CCCC3)cc2)cc1	0.75% (inactive)
CC(=O)OCCn1c(Cc2ccc(Cl)cc2)nn(C(C)=O)c1=O	14.4% (inactive)
CCCCCCCCCCCCn1[nH]c(C)c(C(=S)SCCCCCCCC)c1=O	-7.2% (inactive)

---

Below, each entry is listed alongside its reported growth inhibition.
Assay: NCI Yeast Anticancer Drug Screen. Data for the bub3 strain (AID 167)
Details: S. cerevisiae bub3 mutant strain, at 50.0 µM, stronger effect = higher value
The panel holds about 79,000 compounds, 15% with a hit somewhere; the sample as a whole holds those more often.

compound	growth inhibition (%)
N#CCC(=O)NCCc1c[nH]c2ccccc12	-6.1
Nc1ccc(S(=O)(=O)n2c(=O)oc3cc(Cl)ccc32)cc1	14.1
CCOc1cccc2c1N[S@@](=O)S2	7.8
Cc1cc2ccccc2[nH]1	2.75
OC(CCc1ccco1)CCc1ccco1	10.7
CC1(C)OC1(C(=O)C=[N+]=[N-])c1ccccc1 (configuration not stated)	-13.6
NC(C(=O)O)C1C=CCCC1 (configuration not stated)	-27.2
COc1c(Cl)cc([N+](=O)[O-])cc1Cl	-18.5
CN(C)/C=N\c1ncnc2c1ccn2C1OC(CO)C(O)C1O (configuration not stated)	3.15
N#CC(C(=O)/C(=N\NC(N)=O)C(C#N)c1ccc(Cl)cc1)c1ccc(Cl)cc1 (configuration not stated)	-7.05
N#Cc1ccc(NN=NCCCCCl)cc1	-6.7
Cc1ccc(S(=O)(=O)Oc2ccc(N(CC(=O)O)S(=O)(=O)c3ccc(C)cc3)cc2)cc1	-1.35
COC1=CC(=O)N(C(=O)C2CSC(C(CO)NC(=O)c3csc(/C=N/O)n3)=N2)C1 (configuration not stated)	-6.25
CCN(CC)C(=O)C1(C)NS(=O)(=O)c2ccccc2C1=O (configuration not stated)	-10.8
Cc1c(C)c(C)c(S(=O)(=O)NCCNS(=O)(=O)c2c(C)c(C)c(C)c(C)c2C)c(C)c1C	-2.5
CCOC(=O)CNC(=O)C(=[N+]=[N-])C(=O)COc1ccc(Cl)cc1Cl	19.4
CCCCCNC(=O)CCC	7.05
O=C1c2ccccc2C(=O)N1CNc1ccccc1S	22.1
O=C(O)C(NCCCNC(C(=O)O)c1ccccc1)c1ccccc1 (configuration not stated)	21.7
COC(=O)N1c2ccccc2N(C(=O)OC)c2c1oc1ccccc1c2=O	26.5
O=C(Nc1cccnc1)c1ccc([N+](=O)[O-])s1	11.1
CCOC(=O)C(C)C(=O)NCc1ccccc1 (configuration not stated)	9.35

---

Test: NCI Yeast Anticancer Drug Screen. Data for the mec2-1 strain (AID 157)
Settings: S. cerevisiae mec2-1 strain, at 50.0 µM
Compounds without any hit were thinned out: in the full panel of roughly 79,000, 15% have a hit. Calls of active or inactive are those of the source. No stated cut-off is given here; in the data, active means growth inhibition above about 70%; inactive means the rest.
Outcome codes: active, inactive

compound	category
N#C/C(=N\N=C(/C#N)c1ccc(Cl)cc1)c1ccc(Cl)cc1	inactive
N#CC(=NCCO)C1=C(O)c2ccccc2C1=O	inactive
NC(=O)c1cn(Cc2ccccc2)c(=O)n1Cc1ccccc1	inactive
S=C(S)N1CCN(c2cccc(Cl)c2)CC1	inactive
CCCCSC(N)=O	inactive
COc1c(OCC(O)CN2CCCCC2)c2c(C)coc2c2ccoc12 (configuration not stated)	inactive
CC(=O)OCCn1c([N+](=O)[O-])cnc1/C=[N+](/C)[O-]	inactive
CC(C)[Si]1(C(C)C)OCC2OC(n3c(C(=O)c4ccccc4)cc(=O)[nH]c3=O)CC2O[Si](C(C)C)(C(C)C)O1 (configuration not stated)	inactive
C=CCCCCCCCCC(=O)N(CC#N)CC(C)C	active
O=CC1N=C1c1ccccc1 (configuration not stated)	inactive
COC(=O)CC(NC(=O)C(Cc1ccccc1)NC(=O)OCc1ccccc1)C(=O)O (configuration not stated)	inactive
O=C(/C=C/c1ccc(F)c(F)c1)OCCc1ccccc1	inactive
CC(C)(C)C1(C#N)C(=O)N(c2ccc(Cl)cc2)C12c1ccccc1-c1ccccc12 (configuration not stated)	inactive
CC1(C)CC(OP(=O)(OC2CC(C)(C)N(O)C(C)(C)C2)c2ccccc2)CC(C)(C)N1O	inactive
CC(=O)Oc1ccc(C(=O)c2ccc(OC(C)=O)cc2)cc1	inactive
CSC1(C(=O)O)C2CCC3C2CCC31 (configuration not stated)	inactive
OC1COCCC(O)(CNCc2ccccc2)C1O (configuration not stated)	inactive

---

Test: NCI Yeast Anticancer Drug Screen. Data for the rad50 strain (AID 155);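 note: 0% = growth of vehicle-only cultures of the same strain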
Details: S. cerevisiae rad50 strain growth inhibition; at 50.0 µM; stronger effect = higher value
The panel holds about 79,000 compounds, 15% with a hit somewhere; the sample as a whole holds those more often.
measured.parameter: growth inhibition (%)

molecule	measured.parameter	result.unit	result.number
COC(=O)C1OC2(CCCC3CC32)O[C@H]1C(=O)OC (some centres not stated)	growth inhibition	%	-8.35
COc1cc(C=Nc2ccc3c(c2)OCO3)ccc1OC(=O)c1ccccc1	growth inhibition	%	5.3
CN(C)Cc1cc(CN(C)C)cc(CN(C)C)c1	growth inhibition	%	0.3
ClCc1ccc(-c2ccccc2)cc1	growth inhibition	%	48.8
O=C1OC(=O)C2=C1C1C=CC2CC1	growth inhibition	%	3.4
CCCCCCCCCc1cc(=O)c2ccc(OCc3ccccc3)cc2o1	growth inhibition	%	-42.5
CCN(CC)CCn1c(=O)c2c(ncn2C)n(C)c1=O	growth inhibition	%	-5.55
CC(C)Nc1nc(N)nc2nc(-c3ccc(Cl)cc3)c(-c3ccc(Cl)cc3)nc12	growth inhibition	%	-8.7
CC(C)(C)OC(=O)N1CCCC1=O	growth inhibition	%	9.65
Nc1ccc(C(=O)OCCN2CCN(CCOC(=O)c3ccc(N)cc3)CC2)cc1	growth inhibition	%	28.9
CC(C)=Cc1cc(-c2cc(C=C(C)C)on2)no1	growth inhibition	%	8.1
CC1=NN(c2nc(N)nc(CCl)n2)CC1	growth inhibition	%	11.1
O=C(Nc1ccc(N=C=S)cc1Cl)c1ccc2ccccc2c1O	growth inhibition	%	15.6
O=C1CC(C(=O)O)Cc2c(Br)ccc(O)c21 (configuration not stated)	growth inhibition	%	20.8
COc1cc(/C=C2/C(=O)N(c3ccccc3)N=C2C)cc(OC)c1OC	growth inhibition	%	12.6
c1ccc(CC2=NCCc3ccccc32)cc1	growth inhibition	%	-16.4
COC(=O)c1nc(N)nc(C(=O)OC)c1C(=O)c1c(C)[nH]c2ccccc12	growth inhibition	%	-9.85

Data origin, for the record: PubChem BioAssay (NCI)
